pIC50: −log10 of the molar value.
List of pIC50 tested on DGKα (Homo sapiens (Human), UniProt P23743).
Sequence (P23743 whole entry): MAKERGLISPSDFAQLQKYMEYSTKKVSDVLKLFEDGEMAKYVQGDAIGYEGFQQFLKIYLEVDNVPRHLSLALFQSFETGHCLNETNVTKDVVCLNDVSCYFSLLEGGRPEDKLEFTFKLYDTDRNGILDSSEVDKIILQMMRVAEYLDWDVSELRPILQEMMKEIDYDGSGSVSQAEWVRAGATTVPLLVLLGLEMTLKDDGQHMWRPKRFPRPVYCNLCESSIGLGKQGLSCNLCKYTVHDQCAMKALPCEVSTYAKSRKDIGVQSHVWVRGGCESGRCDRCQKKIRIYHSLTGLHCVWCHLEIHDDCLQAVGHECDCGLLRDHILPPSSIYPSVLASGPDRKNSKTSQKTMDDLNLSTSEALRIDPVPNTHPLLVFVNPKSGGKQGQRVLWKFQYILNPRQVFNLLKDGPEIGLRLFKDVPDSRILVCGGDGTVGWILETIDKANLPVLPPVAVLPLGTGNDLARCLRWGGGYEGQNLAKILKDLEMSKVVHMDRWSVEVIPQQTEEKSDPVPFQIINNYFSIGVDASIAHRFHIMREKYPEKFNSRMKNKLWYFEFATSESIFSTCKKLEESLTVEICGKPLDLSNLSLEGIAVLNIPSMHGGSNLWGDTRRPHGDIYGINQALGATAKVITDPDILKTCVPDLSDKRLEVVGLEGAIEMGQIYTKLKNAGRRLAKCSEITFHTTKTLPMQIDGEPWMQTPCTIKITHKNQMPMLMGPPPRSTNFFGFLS

Solved entries:
{"Molecule": "CC[C@@H]1CN(c2cc(=O)n(C)c3cn(CC#N)nc23)[C@@H](C)CN1C(C)c1ccc(F)cc1C(F)(F)F (single isomer, unassigned) [Compound A218b]", "Assayed target": "DGKα (Homo sapiens (Human), UniProt P23743)", "Reported result": "< 5.00"}
{"Molecule": "CC[C@@H]1CN(c2cc(=O)n(C)c3cn(CC#N)nc23)[C@@H](C)CN1C(C)c1ccc2nccnc2c1 (single isomer, unassigned) [Compound A97a]", "Assayed target": "DGKα (Homo sapiens (Human), UniProt P23743)", "Reported result": 5.47}
{"Molecule": "CC[C@H]1CN(C(C)c2nc3ccc(C(F)(F)F)cc3n2CC)[C@H](CC)CN1c1cc(=O)n(C)c2cn(CC#N)nc12 (single isomer, unassigned) [Compound A204a]", "Assayed target": "DGKα (Homo sapiens (Human), UniProt P23743)", "Reported result": "< 5.00"}
{"Molecule": "CC(c1ccc2nccnc2c1)N1C[C@H](C)N(c2cc(=O)[nH]c3cn(CC#N)nc23)C[C@H]1C (stereo partly drawn) [Compound A102]", "Assayed target": "DGKα (Homo sapiens (Human), UniProt P23743)", "Reported result": "< 5.00"}
{"Molecule": "CC[C@H]1CN(C(C)c2ccc3nc(O)cnc3c2)[C@H](CC)CN1c1cc(=O)n(C)c2cn(CC#N)nc12 (single isomer, unassigned) [Compound A282b]", "Assayed target": "DGKα (Homo sapiens (Human), UniProt P23743)", "Reported result": 4.98}

IN: May I ask what pIC50 has been recorded for CC[C@H]1CN(C(C)c2ccc(F)cc2C(F)(F)F)[C@H](CC)CN1c1cc(=O)[nH]c2cn(CC#N)nc12 (stereo partly drawn) ?
OUT: < 5.00
